assay-target: T1, AAV5 (adeno-associated virus 5)
T1 construct: also called adeno-associated virus serotype 5
test-details: SPR, AAV amine-coupled to CM5 chip;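 further: nanobodies flowed as analyte at seven concentrations spanning 1–100 nM over immobilized AAV (500–800 RU), kinetic constants derived by fitting the binding curves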
# kon per record follows
Give just the number in M⁻¹ s⁻¹; leave the unit off.

Example entries begin here.
A4-080 (VHH) VHH: VQLQESGGGLVQPGGSLRLSCAASGSRFSLNTMGWYRQAPGKQRELVATVTRGGSTNYADFVKGRFTISRDNAKNTVYLQMNSLRPEDTAVYYCHVDELRESGWTTSNLWGQGTQVTVSS
95200
A4-100 (VHH) VHH: VQLQESGGGLVQPGGSLRLSCAASGSIFVINTMGWYRQAPGKQRELVASLTRGGSTNYADSVKGRFTISRDNDKNTIYLQMNSLRPEDTAVYYCHVDEVRESTWTTSNIWGQGTQVTVSS
184000
A4-074 (VHH) VHH: VQLQESGGGLVQSGGSLRLSCAASGSMFSLNTMGWYRQAPGKQRELVATITRGGGTSYADSVKGRFTISRDNAKNTVYLQMNSLRPEDTAVYYCHVDELRQSSWTTSNLWGQGTQVTVSS
175000
A4-071 (VHH) VHH: VQLQESGGGAVQAGGSLRLSCAASGSTFSINTMGWYRQAPGKQRELVATVTRGGSTNYGDFVKGRFTISRDNAKNTVYLQMNTLRPEDTAVYYCHLDEVRQSSWTTSNLWGQGTQVTVSS
181000
A4-081 (VHH) VHH: VQLQESGGGLVQPGGSLRLSCAASGSRFSLNTMGWYRQAPGKQRELVATVTRGGSTNYADSVKGRFTISRDNAKNTVYLQMNSLRPEDTAVYYCHVDELRESGWTTSNLWGQGTQVTVSS
117000
A4-068 (VHH) VHH: VQLQESGGGLVQTGGSLRLSCAASGRAFSLNTMGWYRQAPGKWRELVATVTRGGSTNYAGSVKGRFTISRDNAKNTVYLQMNNLRPEDTAVYYCHVDEVRESSWTTSNLWGQGTQVTVSS
134000

Prompt: kon for A4-058 (VHH) VHH: VQLQESGGGLVQPGGSLRLSCAASGSIFSINTMGWYRQAPAKQREIVATVTRDGSTNYAESVKGRFTISRDNAKNTVYLQMNSLRPEDTAVYYCHLDEVRQSTWTTSNLWGQGTQVTVSS ?
Completion: 52600

Prompt: Requested field: kon. Item: A4-085 (VHH) VHH: VQLQESGGGLVQPGGSLRLSCAASGSRFSLNTMGWYRQAPGKQREFVAAVTRGGNTNYGDFVKGRFTISRDNAKNTVYLQMNSLRPEDTAVYYCHVDELRESSWTTSNLWGQGTQVTVSS
Completion: 9940

The origin of these recorded values is patent US20260193326A1.
